- testParameters: 313.15 K; 101 kPa
Overview of recorded viscosity for various molecules
Report the value in mPa·s with no unit label.

Illustrative cases are given below, each with its answer.
INSERT INTO assay_data (molecule, outcomemeasure, reading) VALUES
  ('CN1CCNCC1', 'viscosity', 1.302),
  ('CCCCCCCCCCCCCCCCCCCc1ccccc1', 'viscosity', 8.33),
  ('CC(=O)[O-].CC[NH2+]CC', 'viscosity', 10.02);

# input molecule: `C=C(C)C(=O)OCCCC` ; wanted: its viscosity 0.7012

# input molecule: `CCCCCCn1cc[n+](C)c1.[Cl-]` ; wanted: its viscosity 1718

# input molecule: `CC[NH3+].O=[N+]([O-])[O-]` ; wanted: its viscosity 22.8

# input molecule: `CC(C)(C)C(=O)O` ; wanted: its viscosity 2.45

# input molecule: CC(CC(C)(C)C)CP(=O)([O-])CC(C)CC(C)(C)C.CCCCCCCC[P+](C)(C)C (stereo not drawn) ; wanted: its viscosity 306

###

- testDetails: xn = mol fraction of the nth substance listed
- testParameters: 308.15 K; 101 kPa; x1 = 0.4
outcomeMeasure: viscosity (mPa·s)
Report the value in mPa·s with no unit label.

Illustrative cases are given below, each with its answer.
INSERT INTO results (compound, outcomemeasure, unitsofmeasure, reading) VALUES
  ('CC(C)(C)C(=O)O + CCCN(CCC)CCC', 'viscosity', 'mPa·s', 2.325),
  ('OCCO + CO', 'viscosity', 'mPa·s', 2.032),
  ('OCCO + CCO', 'viscosity', 'mPa·s', 2.581);

Kindly review the next compound as well.
# input compound: CCCCCCn1cc[n+](C)c1.[Cl-] + CCCCCCn1cc[n+](C)c1.F[B-](F)(F)F ; wanted: its viscosity 552.8

###

- testDetails: xn = mol fraction of the nth substance listed
- testParameters: 303.15 K; 101.33 kPa; x1 = 0.1
Overview of recorded viscosity for various molecules
Report the value in mPa·s with no unit label.

INSERT INTO measurements (molecule, outcomemeasure, unitsofmeasure, reading) VALUES
  ('NCc1ccccc1 + CCC(C)(C)O', 'viscosity', 'mPa·s', 2.641),
  ('NCc1ccccc1 + CCCCCO', 'viscosity', 'mPa·s', 2.82),
  ('NCc1ccccc1 + CCCC(C)O', 'viscosity', 'mPa·s', 2.626);

# input molecule: NCc1ccccc1 + CCC(C)CO ; wanted: its viscosity 3.472

###

- testParameters: 303.15 K; 100 kPa
Overview of recorded viscosity for various compounds
Report the value in mPa·s with no unit label.

Illustrative cases are given below, each with its answer.
INSERT INTO results (entrysmiles, reading) VALUES
  ('CCC(=O)c1ccccc1', 1.51),
  ('CCOP(=O)([O-])OCC.CC[N+]1(C)CCOCC1', 3786),
  ('NCc1ccccc1', 1.497);

# input compound: `CC[NH3+].O=[N+]([O-])[O-]` ; wanted: its viscosity 29.65

###

- testDetails: xn = mol fraction of the nth substance listed
- testParameters: 298.15 K; 101 kPa; x1 = 0.9
± gives the uncertainty stated by the source.
outcomeMeasure: viscosity
Your reply should be a number followed by the unit it is expressed in.

Illustrative cases are given below, each with its answer.
INSERT INTO assay_data (compound, reading) VALUES
  ('OCCO + CCO', '13.61 ± 0.37 mPa·s'),
  ('S=C=S + ClC(Cl)(Cl)Cl', '0.3741 ± 0.0049 mPa·s'),
  ('OCCO + CO', '13.09 ± 0.36 mPa·s');

# input compound: CC(C)(C)C(=O)O + CCCN(CCC)CCC ; wanted: its viscosity 11.96 ± 0.17 mPa·s

# input compound: S=C=S + Cc1ccccc1 ; wanted: its viscosity 0.3718 ± 0.0049 mPa·s

###

Overview of recorded log10 of viscosity for various compounds
- testParameters: 298.15 K; 101 kPa
Scale: decimal log of viscosity, viscosity in mPa·s.

Illustrative cases are given below, each with its answer.
INSERT INTO results (compound, outcomemeasure, reading) VALUES
  ('C=C(C)C(=O)OCCCC', 'log10 of viscosity', -0.06),
  ('O=CN1CCOCC1', 'log10 of viscosity', 0.88);

# input compound: `C=CCN=C=S` ; wanted: its log10 of viscosity -0.18

# input compound: `C=CCc1ccc(O)c(OC)c1` ; wanted: its log10 of viscosity 0.84

###

- testParameters: 303.15 K; 101 kPa
Overview of recorded viscosity for various compounds
Report the value in mPa·s with no unit label.

Illustrative cases are given below, each with its answer.
INSERT INTO measurements (compound, reading) VALUES
  ('CC(C)NC(C)C', 0.364),
  ('C=C(C)C(=O)OCCCC', 0.8077),
  ('CCCCCCn1cc[n+](C)c1.[Cl-]', 4206);

# input compound: `CCOC(=O)CCBr` ; wanted: its viscosity 1.867

# input compound: `CC[NH3+].O=[N+]([O-])[O-]` ; wanted: its viscosity 31

# input compound: `C=CCN=C=S` ; wanted: its viscosity 0.671

# input compound: `NCc1ccccc1` ; wanted: its viscosity 1.415

# input compound: CC(CC(C)(C)C)CP(=O)([O-])CC(C)CC(C)(C)C.CCCCCCCC[P+](C)(C)C (stereo not drawn) ; wanted: its viscosity 560

###

- testParameters: 323.15 K; 101 kPa
Overview of recorded viscosity for various compounds
Report the value in mPa·s with no unit label.

Illustrative cases are given below, each with its answer.
INSERT INTO measurements (compound, outcomemeasure, reading) VALUES
  ('CC(CC(C)(C)C)CP(=O)([O-])CC(C)CC(C)(C)C.CCCCCCCC[P+](C)(C)C (stereo not given)', 'viscosity', 177),
  ('C=CCN=C=S', 'viscosity', 0.526),
  ('CC(C)(C)C(=O)O', 'viscosity', 2.06),
  ('O=CN1CCOCC1', 'viscosity', 4.036);

Kindly review the next compound as well.
# input compound: `CC[NH3+].O=[N+]([O-])[O-]` ; wanted: its viscosity 17.6

###

- testDetails: xn = mol fraction of the nth substance listed
- testParameters: 298.15 K; 101 kPa; x1 = 0.1
outcomeMeasure: viscosity (mPa·s)
Report the value in mPa·s with no unit label.

INSERT INTO results (compound, reading) VALUES
  ('CC(C)(C)C(=O)O + CCCN(CCC)CCC', 1.113),
  ('OCCO + CCO', 1.439),
  ('OCCO + CO', 0.8363),
  ('S=C=S + Cc1ccccc1', 0.5295),
  ('C=CCc1ccc(O)c(OC)c1 + CCCCCOC(C)=O', 0.698);

Kindly review the next compound as well.
# input compound: S=C=S + ClC(Cl)(Cl)Cl ; wanted: its viscosity 0.7919

###

Overview of recorded viscosity for various molecules
- testDetails: xn = mol fraction of the nth substance listed
- testParameters: 298.15 K; 101 kPa; x1 = 0.3
Report the value in mPa·s with no unit label.

INSERT INTO results (molecule, outcomemeasure, reading) VALUES
  ('CC(C)(C)C(=O)O + CCCN(CCC)CCC', 'viscosity', 1.897);

# input molecule: S=C=S + Cc1ccccc1 ; wanted: its viscosity 0.4837

# input molecule: S=C=S + ClC(Cl)(Cl)Cl ; wanted: its viscosity 0.6441

# input molecule: OCCO + CCO ; wanted: its viscosity 2.546

# input molecule: OCCO + CO ; wanted: its viscosity 1.795

###

- testParameters: 308.15 K; 101 kPa
± gives the uncertainty stated by the source.
outcomeMeasure: viscosity
Your reply should be a number followed by the unit it is expressed in.

INSERT INTO results (molecule, reading) VALUES
  ('CC[NH3+].O=[N+]([O-])[O-]', '26.5 mPa·s');

# input molecule: `O=CN1CCOCC1` ; wanted: its viscosity 5.731 ± 0.16 mPa·s

# input molecule: `CCCC[N+]1(C)CCCC1.N#C[C-](C#N)C#N` ; wanted: its viscosity 20.56 ± 1.2 mPa·s

# input molecule: `C=C(C)C(=O)OCCCC` ; wanted: its viscosity 0.7483 ± 0.016 mPa·s

# input molecule: CC(CC(C)(C)C)CP(=O)([O-])CC(C)CC(C)(C)C.CCCCCCCC[P+](C)(C)C (stereo not given) ; wanted: its viscosity 408 ± 21 mPa·s

###

- testDetails: xn = mol fraction of the nth substance listed
- testParameters: 303.15 K; 101 kPa; x1 = 0.7
Overview of recorded viscosity for various molecules
Report the value in mPa·s with no unit label.

# input molecule: NCc1ccccc1 + O ; wanted: its viscosity 2.28

# input molecule: C=CCN=C=S + CCN(CC)c1ccccc1 ; wanted: its viscosity 0.857

# input molecule: CC(C)(C)C(=O)O + CCCN(CCC)CCC ; wanted: its viscosity 21.72

# input molecule: NCc1ccccc1 + COc1ccccc1 ; wanted: its viscosity 1.22
